Test system: SF-539 CNS
protocolText: NCI tumour cell line growth inhibition, 48 h
measuredEndpoint: GI50

Example compounds with recorded GI50:
{"compound": "COC(=O)[C@@H](C)C[C@H](Cc1ccccc1)NC(=O)c1nc([C@@H](C[C@H](C(C)C)N(C)C(=O)[C@@H](NC(=O)[C@H]2CCCCN2C)C(C)C)OC(C)=O)sc1C(C)C", "measuredTarget": "SF-539 CNS", "GI50": "7 nM"}
{"compound": "CCCCCCCCCOc1c(OC)cc(C2CC(=O)Nc3c2c(C)nn3-c2nc3ccccc3[nH]2)cc1OC (centres undefined)", "measuredTarget": "SF-539 CNS", "GI50": "851 nM"}
{"compound": "COc1ccc2c(c1)C(=O)c1c-2c(=O)n(CCCCCCC(=O)NO)c2ccccc12", "measuredTarget": "SF-539 CNS", "GI50": "480 nM"}

Let us move to another entry and its GI50.
input: # return recorded GI50 for entry Cc1oc2nc[nH]c(=O)c2c1C(=O)/C=C/c1ccc(Br)cc1
output: 1730 nM

###

System: MALME-3M melanoma
protocolText: NCI tumour cell line growth inhibition, 48 h; in the data active means GI50 below about 0.43 µM; inactive means the rest
Outcome field: choose from active, inactive

Solved cases below.
{"chemicalStructure": "COc1cc(/C=C\\c2cc(/C=C\\c3ccc(O)c(OC)c3)n(C(=O)COc3ccccc3)n2)ccc1O", "measuredTarget": "MALME-3M melanoma", "assignedCategory": "inactive"}
{"chemicalStructure": "Nc1cc2ccccc2c(O)c1O", "measuredTarget": "MALME-3M melanoma", "assignedCategory": "inactive"}
{"chemicalStructure": "COc1ccc(-c2cn(-c3cccc(C(=O)/C=C/c4cc(OC)c(OC)c(OC)c4)c3)c(=O)[nH]2)cc1", "measuredTarget": "MALME-3M melanoma", "assignedCategory": "inactive"}

input: Given O=C(Nc1ccc(-n2ccc3c(NC(=O)c4ccccc4)ncnc32)cc1)c1ccc(Cl)c(C(F)(F)F)c1 , state the outcome it received in this test.
output: inactive

input: For this compound, state the assay outcome: C=C(C)[C@@H]1CC[C@]2(C)[C@H](CC[C@@H]3[C@@H]([C@@](C)(O)CCC=C(C)C)CC[C@]32C)[C@@]1(C)CCC(=O)N1CCN(C)CC1
output: inactive

input: I'd appreciate the recorded outcome for COc1ccc2c(c1)C(=O)c1c-2c(=O)n(CCCCCCC(=O)NO)c2ccccc12 from this test.
output: active

###

System: NCI-H460 lung
Valid outcomes are listed here; reply with one: class 1 for active, class 0 for inactive

Before answering, review these 3 worked examples.
{"compound": "C/C(=N\\NC(=O)c1ccccc1N)c1ccccc1O", "assignedCategory": "class 0"}
{"compound": "CCC(C)C1=NC(C(=O)N/C=C\\c2c[nH]c3cc(Br)c(Br)cc23)(C(C)C)NC1=O (stereo not given)", "assignedCategory": "class 0"}
{"compound": "c1ccc(-c2nc([P+](c3ccccc3)(c3ccccc3)c3ccccc3)c(N3CCOCC3)o2)cc1", "assignedCategory": "class 0"}

input: Outcome? CCOC(=O)C#Cc1c(C(=O)OCC)nnn1Cc1ccc(C(F)(F)F)cc1
output: class 0

input: Test call, this compound: Cc1oc2nc[nH]c(=O)c2c1C(=O)/C=C/c1ccc(Br)cc1
output: class 0

input: Any idea what this test logged for N=C(N)c1ccc(-c2ccc(-c3cccs3)o2)cc1 ?
output: class 0

input: Check the results log: what was the call for Cc1cnc(NC2CCOCC2)nc1-n1cnc(C(=O)N[C@H](CN)c2cc(F)cc(Cl)c2)c1 ?
output: class 0

input: Assay outcome for CCCCCCCCCOc1c(OC)cc(C2CC(=O)Nc3c2c(C)nn3-c2nc3ccccc3[nH]2)cc1OC (stereo not given) : what was it?
output: class 0

input: Assay result, entry CNC[C@@H](NC(=O)c1ccc(-c2nc([C@H]3CC[C@H](O)[C@@H](F)C3)cnc2N)cc1F)c1cc(F)cc(Br)c1 — outcome?
output: class 0

input: Check the results log: what was the call for COc1ccc2c(c1)C(=O)c1c-2c(=O)n(CCCCCCC(=O)NO)c2ccccc12 ?
output: class 1

###

Tested on: MDA-MB-435
protocolText: NCI tumour cell line growth inhibition, 48 h
measuredEndpoint: TGI

// worked examples, TGI included
{"compound": "COc1ccc2[nH]c(Cl)c(/C=C3/C(=O)N(c4ccccc4)c4ccccc43)c2c1", "measuredTarget": "MDA-MB-435", "TGI": "4.33 µM"}
{"compound": "Nc1c(C(=O)c2cccc(-c3ccncc3)c2)cnn1-c1ccc(F)cc1", "measuredTarget": "MDA-MB-435", "TGI": "> 25 µM"}
{"compound": "COc1ccc2cc(C(=O)NCCCNC(=O)c3ccc4c(OC)c(OC)ccc4c3)ccc2c1OC", "measuredTarget": "MDA-MB-435", "TGI": "> 100 µM"}
{"compound": "c1ccc(-c2cn3nc(N4CCOCC4)sc3n2)cc1", "measuredTarget": "MDA-MB-435", "TGI": "> 100 µM"}
{"compound": "COc1ccc2c(c1)C(=O)c1c-2c(=O)n(CCCCCCC(=O)NO)c2ccccc12", "measuredTarget": "MDA-MB-435", "TGI": "2.29 µM"}
{"compound": "CN1CCN(Cc2ccc(NC(=O)c3cncc(C#Cc4cnc5ccc(Cl)nn45)c3)cc2C(F)(F)F)CC1", "measuredTarget": "MDA-MB-435", "TGI": "2.09 µM"}
{"compound": "COc1nc(=O)n(C2CC(F)C(CO)O2)cc1C (stereo not given)", "measuredTarget": "MDA-MB-435", "TGI": "> 100 µM"}
{"compound": "O=[N+]([O-])c1ccc2c3c1[C@H]1O[C@H]1c1cccc(c1-3)[C@@H]1O[C@H]21", "measuredTarget": "MDA-MB-435", "TGI": "4.14 µM"}
{"compound": "O=c1c2[nH]ccc2nc2n1CCS2", "measuredTarget": "MDA-MB-435", "TGI": "> 100 µM"}

From here, focus on the item given below.
input: # return recorded TGI for input COc1ccc(CCCNC(=O)Cc2ccccc2CO)cc1OC
output: > 100 µM

###

Tested on: K-562 leukemia
protocolText: NCI tumour cell line growth inhibition, 48 h
Recorded measurements of TGI, one per entry

Examples with their reported TGI follow.
{"chemicalStructure": "NC(N)=NS(=O)(=O)c1ccc(NC(=O)c2cccc3c(Nc4ccc(S(=O)(=O)N=C(N)N)cc4)c4ccccc4nc23)cc1", "measuredTarget": "K-562 leukemia", "measuredEndpoint": "TGI", "reportedValue": "> 100 µM"}
{"chemicalStructure": "S=c1[nH]nc(C23CC4CC(CC(C4)C2)C3)n1-c1ccc(Cl)cc1", "measuredTarget": "K-562 leukemia", "measuredEndpoint": "TGI", "reportedValue": "> 100 µM"}

input: In one line, give reported TGI of the entry COc1cccc(-n2ncc3c(N/N=C/c4cccc(F)c4)ncnc32)c1 .
output: > 25 µM

input: Please report TGI for the following compound: c1ccc(-c2cn3nc(N4CCOCC4)sc3n2)cc1
output: > 100 µM

input: Retrieve TGI measured for COC(=O)[C@]12CC[C@@H](C(=O)/C=C/c3cccnc3)[C@@H]1[C@H]1CC[C@@H]3[C@@]4(C)C/C(=C/c5cccnc5)C(=O)C(C)(C)[C@@H]4CC[C@@]3(C)[C@]1(C)CC2 and print it.
output: > 100 µM

input: Consider the compound CC(C)CNC(=O)c1ccc(NC(=O)N(CC(C)C)C(=O)c2ccc(N)c(OCCCN)c2)c(OCCCN=C(N)N)c1 and give its recorded TGI.
output: > 62.5 µM

input: Give me measured TGI, please, for this compound: COc1ccc(C=C2C(=O)NC(=S)NC2=O)c2ccccc12
output: > 100 µM

input: Consider the compound Cc1cnc(NC2CCOCC2)nc1-n1cnc(C(=O)N[C@H](CN)c2cc(F)cc(Cl)c2)c1 . State its measured TGI.
output: 14.5 µM

input: # return recorded TGI for input COc1ccc2[nH]c(=O)c(/C=C/C(=O)c3ccccc3OC)cc2c1
output: > 100 µM

###

System: HT29 colon
protocolText: NCI tumour cell line growth inhibition, 48 h
Reported TGI values follow for various molecules

Worked examples follow.
{"molecule": "Cc1nn(CN2CCN(C)CC2)c(=S)n1/N=C/c1ccc(-c2ccc(Cl)cc2Cl)o1", "TGI": "> 100 µM"}
{"molecule": "CC(=O)OCC12C(OC(C)=O)C(=O)C3C(OC(C)=O)C14OC3(C)COC(=O)c1cccnc1C(C)C(C)C(=O)OC(C(OC(C)=O)C2OC(C)=O)C4(C)O (centres undefined)", "TGI": "> 100 µM"}
{"molecule": "S=c1[nH]nc(C23CC4CC(CC(C4)C2)C3)n1-c1ccc(Cl)cc1", "TGI": "36.8 µM"}

input: Could you please provide reported TGI for Cc1ccc(S(=O)(=O)/N=C(\NO)Nc2ccc(Cl)c(Cl)c2)cc1 ? Thanks!
output: 25.5 µM

// data source = PubChem BioAssay (NCI)
